- SYSTEM UNDER TEST: hA1AR (Homo sapiens (Human))
- Sequence (P30542 whole entry): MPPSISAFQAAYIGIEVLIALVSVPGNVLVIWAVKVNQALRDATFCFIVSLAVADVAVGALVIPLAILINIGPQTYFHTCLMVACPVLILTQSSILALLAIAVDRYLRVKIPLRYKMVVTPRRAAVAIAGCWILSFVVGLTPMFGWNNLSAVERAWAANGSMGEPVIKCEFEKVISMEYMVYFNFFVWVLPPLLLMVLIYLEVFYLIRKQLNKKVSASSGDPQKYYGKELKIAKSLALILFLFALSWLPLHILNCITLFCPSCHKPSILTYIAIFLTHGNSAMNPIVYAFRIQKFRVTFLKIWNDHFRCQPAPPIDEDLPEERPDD
- PROCEDURE DETAILS: Radioligand membrane binding at hA1AR (Example 6)
- CONDITION SUMMARY: CHO cells expressing hA1AR; [3H]R-PIA; n = 3-5; read-out: Affinity Ki, nM A1
- Description: In addition, 800 μg/mL Geneticin and 500 μg/mL hygromycin were added to the A2A media and to the A1 and A3 media, respectively. […] The concentration of protein was determined using a BCA Protein Assay Kit from Pierce Biotechnology (Rockford, Ill.). […] All of the filters were washed 3 times with Tris-HCl, pH 7.5. […] Filters for A3AR binding were counted using a PerkinElmer Cobra II γ-counter. Binding and functional parameters were calculated using Prism 5.0 software (GraphPAD, San Diego, Calif., USA). […]
Below, each entry is listed with its recorded log10(Ki).
MEASURED PROPERTY: log10(Ki) (log10 of the value in nM)

[[record]]
compound = "O[C@@H]1[C@H](O)[C@@H]2C[C@@H]2[C@H]1n1cnc2c(N[C@@H](c3ccccc3)C3CC3)nc(Cl)nc21"
value_reported = 3.48

[[record]]
compound = "OCc1cc(F)c(F)cc1CNc1nc(Cl)nc2c1ncn2[C@@]12C[C@H](O)[C@H](O)[C@@H]1C2"
value_reported = 3.28

[[record]]
compound = "CC(Nc1nc(Cl)nc2c1ncn2[C@H]1[C@H](O)[C@H](O)[C@@H]2C[C@@H]21)C1CC1 (stereo partly drawn)"
value_reported = 1.94

[[record]]
compound = "O[C@@H]1[C@H](O)[C@@H]2C[C@@H]2[C@H]1n1cnc2c(NC3CCCCC3)nc(Cl)nc21"
value_reported = 2.15

[[record]]
compound = "O[C@@H]1[C@H](O)[C@@H]2C[C@@H]2[C@H]1n1cnc2c(N[C@H](CC3CC3)C3CC3)nc(Cl)nc21"
value_reported = 2.69

[[record]]
compound = "CC(C)[C@H](Nc1nc(Cl)nc2c1ncn2[C@H]1[C@H](O)[C@H](O)[C@@H]2C[C@@H]21)C1CC1"
value_reported = 2.18

[[record]]
compound = "O[C@@H]1[C@H](O)[C@@H]2C[C@@H]2[C@H]1n1cnc2c(N[C@H](C3CCC3)C3CC3)nc(Cl)nc21"
value_reported = 2.08

[[record]]
compound = "O[C@@H]1[C@H](O)[C@@H]2C[C@@H]2[C@H]1n1cnc2c(NC3CCCCCCC3)nc(Cl)nc21"
value_reported = 2.88

[[record]]
compound = "O[C@@H]1[C@H](O)[C@@H]2C[C@@H]2[C@H]1n1cnc2c(NCC(C3CC3)C3CC3)nc(Cl)nc21"
value_reported = 2.89

[[record]]
compound = "COc1ccc(F)c(F)c1CNc1nc(Cl)nc2c1ncn2[C@H]1[C@H](O)[C@H](O)[C@@H]2C[C@@H]21"
value_reported = 3.10

[[record]]
compound = "CC(C)Nc1nc(Cl)nc2c1ncn2[C@H]1[C@H](O)[C@H](O)[C@@H]2C[C@@H]21"
value_reported = 1.86

[[record]]
compound = "CCNc1nc(Cl)nc2c1ncn2[C@H]1[C@H](O)[C@H](O)[C@@H]2C[C@@H]21"
value_reported = 2.97

[[record]]
compound = "O[C@@H]1[C@H](O)[C@@H]2C[C@@H]2[C@H]1n1cnc2c(NCC3CC3)nc(Cl)nc21"
value_reported = 1.84

[[record]]
compound = "CCC(CC)Nc1nc(Cl)nc2c1ncn2[C@H]1[C@H](O)[C@H](O)[C@@H]2C[C@@H]21"
value_reported = 1.90

[[record]]
compound = "CC(C)[C@@H](Nc1nc(Cl)nc2c1ncn2[C@H]1[C@H](O)[C@H](O)[C@@H]2C[C@@H]21)C1CC1"
value_reported = 1.88

[[record]]
compound = "O[C@@H]1[C@H](O)[C@@H]2C[C@@H]2[C@H]1n1cnc2c(NC3CCC3)nc(Cl)nc21"
value_reported = 1.71

[[record]]
compound = "O[C@@H]1[C@H](O)[C@@H]2C[C@@H]2[C@H]1n1cnc2c(NCCCF)nc(Cl)nc21"
value_reported = 1.86

[[record]]
compound = "CC[C@H](Nc1nc(Cl)nc2c1ncn2[C@H]1[C@H](O)[C@H](O)[C@@H]2C[C@@H]21)C1CC1"
value_reported = 2.18

[[record]]
compound = "CC[C@@H](Nc1nc(Cl)nc2c1ncn2[C@H]1[C@H](O)[C@H](O)[C@@H]2C[C@@H]21)C1CC1"
value_reported = 1.83

[[record]]
compound = "O[C@@H]1[C@H](O)[C@@H]2C[C@@H]2[C@H]1n1cnc2c(NC3CC3)nc(Cl)nc21"
value_reported = 2.32

[[record]]
compound = "O[C@@H]1[C@H](O)[C@@H]2C[C@@H]2[C@H]1n1cnc2c(NCc3ccccc3F)nc(Cl)nc21"
value_reported = 3.68

[[record]]
compound = "Nc1nc(Cl)nc2c1ncn2[C@H]1[C@H](O)[C@H](O)[C@@H]2C[C@@H]21"
value_reported = 2.54

[[record]]
compound = "O[C@@H]1[C@H](O)[C@@H]2C[C@@H]2[C@H]1n1cnc2c(NC(C3CC3)C3CC3)nc(Cl)nc21"
value_reported = 1.68

[[record]]
compound = "O[C@@H]1[C@H](O)[C@@H]2C[C@@H]2[C@H]1n1cnc2c(N[C@@H](C3CCC3)C3CC3)nc(Cl)nc21"
value_reported = 2.43

[[record]]
compound = "O[C@@H]1[C@H](O)[C@@H]2C[C@@H]2[C@H]1n1cnc2c(NCc3cc(F)ccc3F)nc(Cl)nc21"
value_reported = 3.55

[[record]]
compound = "O[C@@H]1[C@H](O)[C@@H]2C[C@@H]2[C@H]1n1cnc2c(N[C@@H](CC3CC3)C3CC3)nc(Cl)nc21"
value_reported = 2.23

[[record]]
compound = "O[C@@H]1[C@H](O)[C@@H]2C[C@@H]2[C@H]1n1cnc2c(NC3CCCCCC3)nc(Cl)nc21"
value_reported = 2.36


---

- SYSTEM UNDER TEST: UniProt:P0DMS8
- Sequence (P0DMS8 whole entry): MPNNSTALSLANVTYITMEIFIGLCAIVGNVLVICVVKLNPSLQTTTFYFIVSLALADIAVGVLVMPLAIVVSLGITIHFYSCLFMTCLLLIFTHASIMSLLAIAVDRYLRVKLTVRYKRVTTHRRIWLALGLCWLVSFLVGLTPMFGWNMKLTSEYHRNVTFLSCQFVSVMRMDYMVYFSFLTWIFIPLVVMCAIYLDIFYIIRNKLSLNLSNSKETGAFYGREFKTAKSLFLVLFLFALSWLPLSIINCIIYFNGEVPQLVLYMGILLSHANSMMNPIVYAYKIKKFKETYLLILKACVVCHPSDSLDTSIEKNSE
- PROCEDURE DETAILS: Radioligand membrane binding at hA3AR (Example 6)
- CONDITION SUMMARY: CHO cells expressing hA3AR; [125I]I-AB-MECA; n = 3-5; read-out: Affinity Ki, nM A3
Label Met when Ki < 30 nM; otherwise Not met.

[[record]]
smi = "O[C@@H]1[C@H](O)[C@@H]2C[C@@H]2[C@H]1n1cnc2c(NC3CC3)nc(Cl)nc21"
class_assignment = "Met"

[[record]]
smi = "O[C@@H]1[C@H](O)[C@@H]2C[C@@H]2[C@H]1n1cnc2c(NCC(C3CC3)C3CC3)nc(Cl)nc21"
class_assignment = "Not met"

[[record]]
smi = "O[C@@H]1[C@H](O)[C@@H]2C[C@@H]2[C@H]1n1cnc2c(N[C@@H](C3CCC3)C3CC3)nc(Cl)nc21"
class_assignment = "Not met"

[[record]]
smi = "O[C@@H]1[C@H](O)[C@@H]2C[C@@H]2[C@H]1n1cnc2c(NCCCF)nc(Cl)nc21"
class_assignment = "Not met"

[[record]]
smi = "O[C@@H]1[C@H](O)[C@@H]2C[C@@H]2[C@H]1n1cnc2c(NC3CCCCCCC3)nc(Cl)nc21"
class_assignment = "Not met"

[[record]]
smi = "CCNc1nc(Cl)nc2c1ncn2[C@H]1[C@H](O)[C@H](O)[C@@H]2C[C@@H]21"
class_assignment = "Met"


---

- SYSTEM UNDER TEST: hA1AR (Homo sapiens (Human))
- PROCEDURE DETAILS: A1AR functional assay, inhibition of forskolin-stimulated cyclic AMP production in AR-transfected CHO cells
- Format: cell-based
- CONDITION SUMMARY: CHO; read-out: % Inhibition, cyclic AMP A1
Below, each entry is listed with its recorded inhibition at 10 µM.
MEASURED PROPERTY: inhibition at 10 µM

[[record]]
compound = "CC(C)[C@@H](Nc1nc(Cl)nc2c1ncn2[C@H]1[C@H](O)[C@H](O)[C@@H]2C[C@@H]21)C1CC1 [Compound 214]"
measured_property = "inhibition at 10 µM"
value_reported = "33.8%"

[[record]]
compound = "O[C@@H]1[C@H](O)[C@@H]2C[C@@H]2[C@H]1n1cnc2c(NCC3CC3)nc(Cl)nc21 [Compound 119]"
measured_property = "inhibition at 10 µM"
value_reported = "81%"

[[record]]
compound = "O[C@@H]1[C@H](O)[C@@H]2C[C@@H]2[C@H]1n1cnc2c(N[C@H](CC3CC3)C3CC3)nc(Cl)nc21 [Compound 218]"
measured_property = "inhibition at 10 µM"
value_reported = "18.4%"

[[record]]
compound = "Nc1nc(Cl)nc2c1ncn2[C@H]1[C@H](O)[C@H](O)[C@@H]2C[C@@H]21 [Compound 107]"
measured_property = "inhibition at 10 µM"
value_reported = "68.1%"

